- Subject of test: Cytochrome P450 3A4 (Homo sapiens) (UniProt P08684)
- Sequence (P08684 whole entry, looked up): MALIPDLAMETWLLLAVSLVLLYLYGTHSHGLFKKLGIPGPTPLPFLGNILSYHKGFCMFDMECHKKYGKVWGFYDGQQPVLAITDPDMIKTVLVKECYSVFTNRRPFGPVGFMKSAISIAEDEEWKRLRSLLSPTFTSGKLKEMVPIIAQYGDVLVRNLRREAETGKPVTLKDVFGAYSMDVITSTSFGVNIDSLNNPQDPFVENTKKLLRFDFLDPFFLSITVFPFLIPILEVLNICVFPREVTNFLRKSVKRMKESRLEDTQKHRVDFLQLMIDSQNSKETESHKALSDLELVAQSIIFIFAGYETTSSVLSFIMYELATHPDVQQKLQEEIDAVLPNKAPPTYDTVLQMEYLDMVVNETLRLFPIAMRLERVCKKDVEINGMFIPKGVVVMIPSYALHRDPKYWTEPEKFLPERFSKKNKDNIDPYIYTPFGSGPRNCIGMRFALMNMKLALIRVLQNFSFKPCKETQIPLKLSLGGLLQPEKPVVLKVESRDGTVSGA
- Test summary: Cytochrome panel assay with activity outcomes; also: % is scaled to controls: 0 for no effect and ±100 for the full control effect
- Run parameters: recombinant CYP, pro-luciferin dealkylation, luminescence, p450-cyp3a4; series mostly up to 57.1 µM
- Experimental: The P450 gene superfamily is involved in the metabolism and clearance of xenobiotics. This assay used various human CYP P450 isozymes to measure the dealkylation of various pro-luciferin substrates to luciferin. The luciferin is then measured by luminescence after the addition of a luciferase detection reagent. […] Inhibitors and some substrates limit the production of luciferin, and decrease measured luminescence. […] 8, Detection, 1 sec, ViewLux luminescent read […]
The whole screen tested about 16,000 compounds, of which about 5,100 (32%) were called active. Another 25% or so got no clear call; they are omitted. Some of the results follow.
Exercise: state measured activity, negative = inhibition for each of the compounds provided.

IN: Entry CC(=NC1CCCCC1)c1ccccc1O needs its activity, negative = inhibition filled in; supply it.
OUT: -3.59% [at 11.4 µM] (inactive)

IN: Entry CN1C[C@H](c2ccccc2)C(O)([C@]2(c3ccccc3)CN(C)C[C@@H](c3ccccc3)C2=O)[C@H](c2ccccc2)C1 (stereo partly drawn) needs its activity, negative = inhibition filled in; supply it.
OUT: -0.704% [at 11.4 µM] (inactive)

IN: Entry Cc1cc(N2CCOCC2)ncc1[N+](=O)[O-] needs its activity, negative = inhibition filled in; supply it.
OUT: 8.16% [at 2.29 µM] (inactive)

IN: Entry O=C(O)COc1c(Cl)cc(Cl)c2cccnc12 needs its activity, negative = inhibition filled in; supply it.
OUT: -9.36% [at 11.4 µM] (inactive)

IN: Entry CN(C)CCSCCO needs its activity, negative = inhibition filled in; supply it.
OUT: -12.3% [at 11.4 µM] (inactive)

IN: Entry COc1ccc(/C=C(\C#N)C(N)=O)cc1OC needs its activity, negative = inhibition filled in; supply it.
OUT: -6.66% [at 11.4 µM] (inactive)

IN: Entry Cc1ccc(OCC(=O)NC2=NCCS2)cc1 needs its activity, negative = inhibition filled in; supply it.
OUT: -22.5% [at 11.4 µM] (inactive)

IN: Entry CO[C@@H](C(C)C)[C@@H](C)[C@@H]1OC(=O)C[C@@H]1O needs its activity, negative = inhibition filled in; supply it.
OUT: -9.77% [at 11.4 µM] (inactive)

IN: Entry CC(C)=NO[C@@H](C)c1cn([C@@H]2COC[C@@H]2O)nn1 needs its activity, negative = inhibition filled in; supply it.
OUT: -6.38% [at 11.4 µM] (inactive)

IN: Entry Cn1c(=O)c2[nH]c(CCC(=O)O)nc2n(C)c1=O needs its activity, negative = inhibition filled in; supply it.
OUT: -3% [at 11.4 µM] (inactive)

IN: Entry CC(C)n1nnnc1-c1cc(Cl)cc(Cl)c1 needs its activity, negative = inhibition filled in; supply it.
OUT: 11.3% [at 2.29 µM] (inactive)

IN: Entry CC1(CCC(=O)OC2CCCCC2)OCCO1 needs its activity, negative = inhibition filled in; supply it.
OUT: -7.62% [at 11.4 µM] (inactive)

IN: Entry O=C(O)CCc1ccc(-c2ccccc2)[nH]1 needs its activity, negative = inhibition filled in; supply it.
OUT: -13.2% [at 11.4 µM] (inactive)

IN: Entry O=C(Nc1ccc(Nc2ccc3c(c2)C(=O)c2ccccc2C3=O)c2c1C(=O)c1ccccc1C2=O)c1ccccc1 needs its activity, negative = inhibition filled in; supply it.
OUT: -7.98% [at 11.4 µM] (inactive)

IN: Entry O=C(O)[C@@H]1[C@@H](C(=O)NCc2cccnc2)[C@@H]2C=C[C@@H]1O2 needs its activity, negative = inhibition filled in; supply it.
OUT: -21.1% [at 11.4 µM] (inactive)

IN: Entry CCCOc1ccc(C(=O)NC(=S)Nc2nc3ccc(C)cc3s2)cc1 needs its activity, negative = inhibition filled in; supply it.
OUT: 13.6% [at 2.29 µM] (inactive)

IN: Entry O=C1c2ccccc2-c2ccc(NC(=O)[C@H]3CCCC[C@@H]3C(=O)O)cc21 needs its activity, negative = inhibition filled in; supply it.
OUT: -29% [at 11.4 µM] (inactive)

IN: Entry Clc1ccc(-c2nnc(-c3ccco3)o2)cc1 needs its activity, negative = inhibition filled in; supply it.
OUT: 1.16% [at 11.4 µM] (inactive)

IN: Entry O=C(O)c1ccc(CNCc2ccccc2)cc1 needs its activity, negative = inhibition filled in; supply it.
OUT: -2.73% [at 11.4 µM] (inactive)

IN: Entry Cc1cc(C)c(-c2cc([C@H](C)O/N=C\[C@@H](C)[C@H](OCc3ccccc3)C(C)C)on2)c(C)c1 needs its activity, negative = inhibition filled in; supply it.
OUT: -37.1% [at 11.4 µM] (inactive)

IN: Entry O=C(O)c1[nH]c2c([N+](=O)[O-])cc([N+](=O)[O-])cc2c1C(=O)O needs its activity, negative = inhibition filled in; supply it.
OUT: 3.73% [at 11.4 µM] (inactive)

IN: Entry CC(=O)C[C@H](O)[C@@H](NC(=O)OC(C)(C)C)C(C)C needs its activity, negative = inhibition filled in; supply it.
OUT: -26.2% [at 11.4 µM] (inactive)

IN: Entry O=C(Nc1cccc(Cl)c1)N1CCN2C(=O)c3ccccc3C12c1ccccc1 (stereo not drawn) needs its activity, negative = inhibition filled in; supply it.
OUT: -22.9% [at 2.29 µM] (inactive)
